# SYSTEM_TESTED: DPP9 (Homo sapiens (Human))
# Sequence (Q86TI2 whole entry): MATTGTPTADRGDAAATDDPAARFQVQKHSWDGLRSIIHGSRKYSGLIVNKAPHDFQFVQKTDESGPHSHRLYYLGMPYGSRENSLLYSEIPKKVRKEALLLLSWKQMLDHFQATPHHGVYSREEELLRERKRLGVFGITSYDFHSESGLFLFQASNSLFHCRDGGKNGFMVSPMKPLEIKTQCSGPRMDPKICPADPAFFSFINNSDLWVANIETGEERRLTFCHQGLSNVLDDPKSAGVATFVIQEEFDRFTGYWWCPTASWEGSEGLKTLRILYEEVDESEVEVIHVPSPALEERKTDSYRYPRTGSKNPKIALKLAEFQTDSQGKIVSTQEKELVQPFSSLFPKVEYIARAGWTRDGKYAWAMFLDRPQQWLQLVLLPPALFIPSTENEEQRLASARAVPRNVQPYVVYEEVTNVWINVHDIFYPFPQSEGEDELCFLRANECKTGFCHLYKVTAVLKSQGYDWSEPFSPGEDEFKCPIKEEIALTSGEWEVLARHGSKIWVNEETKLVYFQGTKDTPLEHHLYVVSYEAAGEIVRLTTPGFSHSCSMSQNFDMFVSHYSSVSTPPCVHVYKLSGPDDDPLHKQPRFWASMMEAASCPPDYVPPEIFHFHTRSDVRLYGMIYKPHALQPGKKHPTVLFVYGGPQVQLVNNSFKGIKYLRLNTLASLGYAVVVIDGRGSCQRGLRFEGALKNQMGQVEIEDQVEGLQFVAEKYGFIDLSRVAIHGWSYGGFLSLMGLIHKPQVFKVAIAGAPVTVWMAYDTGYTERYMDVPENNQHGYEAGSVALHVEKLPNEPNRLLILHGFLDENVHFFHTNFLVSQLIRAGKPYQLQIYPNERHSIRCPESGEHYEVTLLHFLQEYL
# ASSAY_TEXT: DPP9 enzyme inhibition, IC50 measurement (Ala-Pro-pNA release)
# Type: biochemical
# CONDITION_CONTEXT: Table 4; selectivity index
Structures can show the parent of a compound that is named as a salt.
READOUT_LABEL: SI DPP9/DPP8

O=C(CCCCC1SCC2NC(=O)NC21)NCCOCCOCCOCCNC(=O)NC12CC3CC(CC(NCC(=O)N4Cc5cc(F)c(F)cc5C4)(C3)C1)C2 (stereo not drawn)    7
Cl.O=C(NC12CC3CC(CC(NCC(=O)N4Cc5ccc(F)cc5C4)(C3)C1)C2)c1ccc(-c2ccccc2F)cc1    26
O=C(CNC12CC3CC(C1)CC(Nc1ccc(-c4ccccc4)nc1)(C3)C2)N1Cc2ccc(F)cc2C1 [Compound 109, dihydrochloride]    2
Cl.O=C(NC12CC3CC(CC(NCC(=O)N4Cc5ccc(F)cc5C4)(C3)C1)C2)c1ccc(-c2ccccn2)cc1    37
Cl.O=C(NC12CC3CC(CC(NCC(=O)N4Cc5ccc(F)cc5C4)(C3)C1)C2)c1ccc(F)cc1    7
Cl.O=C(NC12CC3CC(CC(NCC(=O)N4Cc5ccc(F)cc5C4)(C3)C1)C2)c1ccc(-c2cccs2)cc1    27
Cl.O=C(NC12CC3CC(CC(NCC(=O)N4Cc5ccc(F)cc5C4)(C3)C1)C2)c1ccc(-c2ccccc2)cc1    54
Cc1ncsc1-c1ccc(CNC(=O)[C@@H]2C[C@@H](O)CN2C(=O)[C@@H](NC(=O)c2ccc(-c3ccc(C(=O)NC45CC6CC(CC(NCC(=O)N7Cc8ccc(F)cc8C7)(C6)C4)C5)cc3)cc2)C(C)(C)C)cc1    3
Cl.O=C(NC12CC3CC(CC(NCC(=O)N4Cc5ccc(F)cc5C4)(C3)C1)C2)c1ccc(-c2cccs2)nc1    22
Cc1ncsc1-c1ccc(CNC(=O)[C@@H]2C[C@@H](O)CN2C(=O)[C@@H](NC(=O)CCOCCOc2ccc(-c3ccc(C(=O)NC45CC6CC(CC(NCC(=O)N7Cc8ccc(F)cc8C7)(C6)C4)C5)cc3)cc2)C(C)(C)C)cc1    9
Cl.O=C(NC12CC3CC(CC(NCC(=O)N4Cc5ccc(F)cc5C4)(C3)C1)C2)c1cccnc1    3
CC(C)(C)NC(=O)NC12CC3CC(CC(NCC(=O)N4Cc5cc(F)c(F)cc5C4)(C3)C1)C2.Cl    41
Cc1ncsc1-c1ccc(CNC(=O)[C@@H]2C[C@@H](O)CN2C(=O)[C@@H](NC(=O)CCOCCOCCOCCC(=O)NC23CC4CC(CC(NCC(=O)N5Cc6ccc(F)cc6C5)(C4)C2)C3)C(C)(C)C)cc1    5
Cl.O=C(NC12CC3CC(CC(NCC(=O)N4Cc5ccc(F)cc5C4)(C3)C1)C2)c1ccc(-c2ccc(O)cc2)cc1    27
Cc1ncsc1-c1ccc(CNC(=O)[C@@H]2C[C@@H](O)CN2C(=O)[C@@H](NC(=O)c2csc(-c3ccc(C(=O)NC45CC6CC(CC(NCC(=O)N7Cc8ccc(F)cc8C7)(C6)C4)C5)cc3)c2)C(C)(C)C)cc1    11
Cl.O=C(NC12CC3CC(CC(NCC(=O)N4Cc5ccc(F)cc5C4)(C3)C1)C2)c1ccc(-c2ccc(F)cc2)cc1    59
CC[N+]1=C(/C=C/C=C2/N(CCCCCC(=O)NC34CC5CC(CC(NCC(=O)N6Cc7ccc(F)cc7C6)(C5)C3)C4)c3ccc(S(=O)(=O)O)cc3C2(C)C)C(C)(C)c2cc(S(=O)(=O)[O-])ccc21    21
Cl.O=C(NC12CC3CC(CC(NCC(=O)N4Cc5ccc(F)cc5C4)(C3)C1)C2)c1cnc2ccccc2c1    13
Cl.O=C(NC12CC3CC(CC(NCC(=O)N4Cc5ccc(F)cc5C4)(C3)C1)C2)c1cccc(-c2ccccc2)c1    4
COC(=O)c1csc(-c2ccc(C(=O)NC34CC5CC(CC(NCC(=O)N6Cc7ccc(F)cc7C6)(C5)C3)C4)cc2)c1.Cl    25
CC(C)(C)CC(=O)NC12CC3CC(CC(NCC(=O)N4Cc5cc(F)c(F)cc5C4)(C3)C1)C2    22
Cl.O=C(NC12CC3CC(CC(NCC(=O)N4Cc5ccc(F)cc5C4)(C3)C1)C2)c1ccc(-c2ccccc2)nc1    28
Cl.O=C(NC12CC3CC(CC(NCC(=O)N4Cc5ccc(F)cc5C4)(C3)C1)C2)c1ccc(-c2ccncc2)cc1    12
COC(=O)c1ccc(-c2ccc(C(=O)NC34CC5CC(CC(NCC(=O)N6Cc7ccc(F)cc7C6)(C5)C3)C4)cc2)cc1 [Compound 104, hydrochloride]    46
